target: UniProtKB Q15561; assay: Inhibition of CPM binding to N-terminal His6-tagged human TEAD4 (217 to 434 residues) expressed in Escherichia coli BL21-CodonPlus (DE3)-RIPL cells preincubated for 10 mins followed by CPM addition and measured after 1 hr by fluorescence assay; conditions: read-out: IC50(app)
Sequence (Q15561 whole entry, the tested form may be a part): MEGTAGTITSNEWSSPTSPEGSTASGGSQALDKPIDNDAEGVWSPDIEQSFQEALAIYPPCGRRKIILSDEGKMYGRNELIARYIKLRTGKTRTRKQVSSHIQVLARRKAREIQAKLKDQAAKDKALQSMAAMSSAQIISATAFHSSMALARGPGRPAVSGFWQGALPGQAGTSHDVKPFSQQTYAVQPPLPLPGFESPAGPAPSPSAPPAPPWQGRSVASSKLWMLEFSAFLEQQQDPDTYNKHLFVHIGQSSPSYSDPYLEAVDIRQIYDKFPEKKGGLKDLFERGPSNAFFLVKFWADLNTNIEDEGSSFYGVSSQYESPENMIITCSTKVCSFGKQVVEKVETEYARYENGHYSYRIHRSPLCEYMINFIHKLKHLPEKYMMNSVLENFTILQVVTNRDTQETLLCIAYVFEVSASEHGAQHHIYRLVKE
pIC50: −log10 of the molar value.
measurement_label: pIC50

Answered examples (2):
O=c1cc(CO)oc(C(Nc2ccccc2)C2CCCCC2)c1O (stereo not drawn)	< 4.00
COc1c(C(Nc2ccccc2)c2ccccc2)oc(CO)cc1=O (stereo not drawn)	< 4.00

Would you kindly look at the next entry?
Q. Form field - read-out: pIC50; system: UniProtKB Q15561; submitted item: O=c1cc(CO)oc(C(Nc2nc3ccccc3[nH]2)c2ccccc2)c1O (stereo not drawn)
A. < 4.00

From: ChEMBL document CHEMBL4665803
